Data provenance is patent US20240226314A1.

# Assay System: T1, His-tagged cynomolgus monkey TfR ectodomain (cyTFRC_89_760; mature protein) (cynomolgus monkey (Macaca fascicularis), UniProt Q5RDH6 89-760 (Pongo abelii entry))
# T1 construct: also called cTfR; cTfR ectodomain
# T1 chain: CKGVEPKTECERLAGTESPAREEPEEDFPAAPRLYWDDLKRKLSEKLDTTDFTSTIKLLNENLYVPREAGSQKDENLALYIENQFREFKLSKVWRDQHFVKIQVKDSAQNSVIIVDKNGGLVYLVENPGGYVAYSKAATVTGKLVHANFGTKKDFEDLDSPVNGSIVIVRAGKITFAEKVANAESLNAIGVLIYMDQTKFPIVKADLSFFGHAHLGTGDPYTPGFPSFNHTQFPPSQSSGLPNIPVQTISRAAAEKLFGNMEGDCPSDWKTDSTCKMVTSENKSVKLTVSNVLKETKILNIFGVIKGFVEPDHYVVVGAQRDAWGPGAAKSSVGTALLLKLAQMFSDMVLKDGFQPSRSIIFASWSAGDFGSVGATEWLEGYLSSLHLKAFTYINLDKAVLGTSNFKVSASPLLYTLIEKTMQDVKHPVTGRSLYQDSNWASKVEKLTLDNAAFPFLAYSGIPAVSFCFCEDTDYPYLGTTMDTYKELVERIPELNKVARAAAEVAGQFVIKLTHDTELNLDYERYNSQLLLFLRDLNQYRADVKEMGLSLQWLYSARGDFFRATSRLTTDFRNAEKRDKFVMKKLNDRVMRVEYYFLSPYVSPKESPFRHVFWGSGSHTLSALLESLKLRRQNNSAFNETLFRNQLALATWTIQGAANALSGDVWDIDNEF
# Test Summary: SPR, His-tagged TfR ectodomain captured on anti-His, 1:1 fit
Measure Name: Kd (nM)
Form entry: value (nM) — number only.

Dear colleague, I am looking for the recorded Kd of the following binder: 531_1L2_variant4 Fab (Fab, V domains shown, Humanized Fab; The His-tag was removed with TEV protease before SPR) VH: EVQLLESGGGLVQPGGSLRLSCAASGYTFTRYYLNWVRQAPGKGLEWIGMIDPSVSETHYADSVKGRATLSVDKSKNTAYLQMNSLRAEDTAVYYCSQIRLPYYYAMDSWGQGTTVTVSS VL: DIQMTQSPSSLSASVGDRVTITCRASQDINSFLNWYQQKPGKAVKLLIYYTSRLQSGVPSRFSGSGSGTDYTLTISSLQPEDFATYFCQQGNTLPRTFGGGTKVEIK
1210

Next:
Dear colleague, I am looking for the recorded Kd of the following binder: 531_1L2_variant21 Fab (Fab, V domains shown, Humanized Fab; The His-tag was removed with TEV protease before SPR) VH: QVQLVQSGAEVKKPGASVKVSCKASGYTFTRYYLNWVRQAPGQGLEWIGMIDPSVSETHYAQKFQGRATLTVDKSTSTAYMELSSLRSEDTAVYYCSQIRLPYYYAMDSWGQGTTVTVSS VL: DIQMTQSPSSLSASVGDRVTITCRASQDISSFLNWYQQKPGKAVKLLIYYTSRLQSGVPSRFSGSGSGTDYTLTISSLQPEDFATYFCQQGNTLPRTFGGGTKVEIK
30.9
